# SUBJECT OF TEST: protein-protein interaction between Kras and SOS1 (biotin-tagged human Kras loaded with GDP, His-tagged human SOS1) (Homo sapiens (Human), UniProt P01116, G12D)
# PROTOCOL NOTES: Protein-protein interaction inhibition between Kras and SOS1 (KrasG12D-SOS PPI) using AlphaScreen;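 further: kras produced in E. coli, Ni-coupled donor beads and streptavidin acceptor beads, excitation 680 nm with emission detected at 520–620 nm via singlet oxygen transfer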
# Assay type: biochemical
# CONDITION CONTEXT: AlphaScreen; biotin-tagged human Kras loaded with GDP, His-tagged human SOS1; read-out: KRAS G12D-SOS PPI IC50
Bridge positions count the residues as written; N and C are the ends. Square brackets hold non-standard residues; d marks the D form. Peptide text beside a SMILES is read from it. * marks the point of attachment. hPhe(3-Cl-4-CF3) = N[C@@H](CCc1ccc(C(F)(F)F)c(Cl)c1)C(=O)O; NMeCha = CN[C@@H](CC1CCCCC1)C(=O)O; NMeChg = CN[C@H](C(=O)O)C1CCCCC1; NMeD = CN[C@@H](CC(=O)O)C(=O)O; NMeL = CN[C@@H](CC(C)C)C(=O)O; NAllylGly = C=CCNCC(=O)O; Piperidide = C1CCN(*)CC1; Ac5c = NC1(C(=O)O)CCCC1; Sar = CNCC(=O)O
MEASURE NAME: IC50 (nM)
Provide the reading as a plain figure in nM.

input: Fill in the blank: the reported IC50 of C=CCN1CC(=O)NC2(CCCC2)C(=O)N(C)[C@@H](C2CCCCC2)C(=O)N(C)[C@H](C(=O)N2CCCCC2)CC(=O)N(C)[C@@H](CC(C)C)C(=O)N[C@@H]([C@@H](C)CC)C(=O)N(C)CC(=O)N(C)CC(=O)N(C)[C@@H](CC2CCCCC2)C(=O)N(C)CC(=O)N[C@@H](CCc2ccc(C(F)(F)F)c(Cl)c2)C1=O [Compound 899] ([NMeL]I[Sar][Sar][NMeCha][Sar][hPhe(3-Cl-4-CF3)][NAllylGly][Ac5c][NMeChg][NMeD]-Piperidide; lactam N-11 (inferred); C-terminus assumed) is ____.
output: 1.9
